biological target: Histamine H2 receptor (Homo sapiens); type: functional, cell-based; further: assay procedure not described here
Sequence (P25021 whole entry): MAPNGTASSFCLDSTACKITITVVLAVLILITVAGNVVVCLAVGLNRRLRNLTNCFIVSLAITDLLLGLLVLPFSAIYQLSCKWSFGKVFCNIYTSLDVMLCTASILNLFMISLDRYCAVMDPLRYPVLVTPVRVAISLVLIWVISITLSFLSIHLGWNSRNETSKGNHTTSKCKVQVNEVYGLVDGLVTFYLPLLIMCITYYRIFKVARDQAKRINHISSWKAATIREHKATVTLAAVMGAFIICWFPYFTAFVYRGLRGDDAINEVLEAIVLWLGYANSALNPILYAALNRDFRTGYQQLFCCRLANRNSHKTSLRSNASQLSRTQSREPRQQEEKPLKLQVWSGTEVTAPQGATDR
List of AC50 values.

Sample records with AC50:
compound: Cc1ncc2n1-c1ccc(Cl)cc1C(c1ccccc1F)=NC2
AC50: > 30 µM
//
compound: CCCCC(=O)O[C@]1(C(=O)CO)[C@@H](C)C[C@H]2[C@@H]3CCC4=CC(=O)C=C[C@]4(C)[C@@]3(F)[C@@H](O)C[C@@]21C [BETAMETHASONE VALERATE]
AC50: > 10 µM

Prompt: # get_value(readout= AC50, system= Histamine H2 receptor (Homo sapiens)) for COc1cc(N)c(Cl)cc1C(=O)NC1CCN(Cc2ccccc2)CC1 [CLEBOPRIDE]; further: assay procedure not described here
Completion: > 30 µM

Prompt: # get_value(readout= AC50, system= Histamine H2 receptor (Homo sapiens)) for CC(C(=O)O)c1ccc2c(c1)[nH]c1ccc(Cl)cc12 (configuration not stated); further: assay procedure not described here
Completion: > 10 µM

Prompt: # get_value(readout= AC50, system= Histamine H2 receptor (Homo sapiens)) for CCC(COC(=O)c1cc(OC)c(OC)c(OC)c1)(c1ccccc1)N(C)C (configuration not stated); further: assay procedure not described here
Completion: > 30 µM
